Target System: furin, P09958;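 also: purified furin at 1:10 enzyme:substrate in 50 mM HEPES pH 7.5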
Sequence (P09958 whole entry): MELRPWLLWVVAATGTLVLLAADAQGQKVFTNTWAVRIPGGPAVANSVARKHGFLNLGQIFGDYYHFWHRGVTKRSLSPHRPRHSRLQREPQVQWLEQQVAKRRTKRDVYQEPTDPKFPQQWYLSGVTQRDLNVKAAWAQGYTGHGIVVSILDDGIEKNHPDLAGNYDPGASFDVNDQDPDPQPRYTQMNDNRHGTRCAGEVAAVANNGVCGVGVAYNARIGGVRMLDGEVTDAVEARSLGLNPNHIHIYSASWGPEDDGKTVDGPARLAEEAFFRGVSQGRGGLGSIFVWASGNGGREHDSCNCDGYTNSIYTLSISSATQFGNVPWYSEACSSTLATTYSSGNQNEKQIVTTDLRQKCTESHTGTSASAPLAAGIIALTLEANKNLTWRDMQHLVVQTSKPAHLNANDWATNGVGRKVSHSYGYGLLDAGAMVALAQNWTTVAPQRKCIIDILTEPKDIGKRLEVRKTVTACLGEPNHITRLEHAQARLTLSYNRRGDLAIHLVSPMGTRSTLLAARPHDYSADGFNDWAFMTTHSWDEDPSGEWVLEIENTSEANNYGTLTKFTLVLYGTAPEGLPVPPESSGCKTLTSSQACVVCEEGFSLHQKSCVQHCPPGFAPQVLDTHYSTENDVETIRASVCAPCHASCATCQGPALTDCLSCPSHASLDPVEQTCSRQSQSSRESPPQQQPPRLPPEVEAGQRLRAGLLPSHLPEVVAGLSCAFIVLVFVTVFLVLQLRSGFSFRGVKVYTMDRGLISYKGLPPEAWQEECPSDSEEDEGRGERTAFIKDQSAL
Protocol: furin cleavage Z-score vs untreated control; higher = more cleavage, active = 3.5 or more, inactive = 1 or less, 8 variable residues between constant flanks
Condition: 15 min
The list shows a part of the results. The true hit rate is not given.
// classify into t (active), f (inactive)

Please let me know the test result on file for CAIASLMAFTAGNASASA [HC1054] .
f

Please let me know the test result on file for CAYSTYGKFLAGNASASA [HC807] .
f

Please let me know the test result on file for CADLGRPARSAGNASASA [FS-1447] .
f

Please let me know the test result on file for CARLWRKSRSAGNASASA [FS-189] .
t

Please let me know the test result on file for CASVASSSASAGNASASA [HC1259] .
f

Please let me know the test result on file for CAVPRRPARAAGNASASA [FS-150] .
t

Please let me know the test result on file for CASGENLPYLAGNASASA [HC950] .
f

Please let me know the test result on file for CARQRRIYKTAGNASASA [FS-2590] .
f

Please let me know the test result on file for CAEVVTCTWVAGNASASA [HC154] .
f

Please let me know the test result on file for CAVPESDAAAAGNASASA [HC1128] .
f

Please let me know the test result on file for CAYHHKFNSSAGNASASA [HC382] .
f

Please let me know the test result on file for CAEVVTPTWVAGNASASA [HC160] .
f

Please let me know the test result on file for CAVVCCSMSFAGNASASA [HC2087] .
f

Please let me know the test result on file for CALPRRPARSAGNASASA [FS-1231] .
t

Please let me know the test result on file for CARFDRQIFIAGNASASA [FS-2012] .
f

Please let me know the test result on file for CAGPGRVRRRAGNASASA [FS-28] .
t

Please let me know the test result on file for CALKKRSYFGAGNASASA [FS-2870] .
f

Please let me know the test result on file for CARNLGKVIDAGNASASA [HC219] .
f

Please let me know the test result on file for CAGERCDLEDAGNASASA [HC485] .
f

Please let me know the test result on file for CASAHRQPRLAGNASASA [FS-144] .
f

Please let me know the test result on file for CAARLLARGGAGNASASA [HC1625] .
f

Please let me know the test result on file for CALNARYSRSAGNASASA [FS-52] .
t

Please let me know the test result on file for CAVVCCRMSYAGNASASA [HC110] .
f

Please let me know the test result on file for CARQRRVRRRAGNASASA [FS-1160] .
t

Data provenance is the supplement of paper PMC3545927.
